- measured.target: SHP2-C SH2
- test: SH2 binding enrichment of the phosphorylated peptide, bacterial display (enrichment ratio); higher = better substrate or ligand; peptides without Tyr show the background
property.measured: SH2 binding enrichment
Write no unit; give the number alone.

// below: answered sequences
VDLIVYLWTNP [TK2_Y181_R183W] ... 0.682
VQVAFYTVMMN [SPATA17_Y84_M86V_YF] ... 0.69
KLMTEYKKRKQ [ARFGEF3_Y2029] ... 0.878
HKANEYYPVVL [ADAMTS18_Y764] ... 0.907

Requested field: SH2 binding enrichment. Item: SLQFEYVHFGG [CDC14A_Y591_S589F_YF]
0.925

Let us now turn to QRRYLYYYSYL [PTEN_Y176_V175L]
0.683

* * *

- measured.target: MERTK (UniProt Q12866)
- Sequence (Q12866 whole entry, looked up): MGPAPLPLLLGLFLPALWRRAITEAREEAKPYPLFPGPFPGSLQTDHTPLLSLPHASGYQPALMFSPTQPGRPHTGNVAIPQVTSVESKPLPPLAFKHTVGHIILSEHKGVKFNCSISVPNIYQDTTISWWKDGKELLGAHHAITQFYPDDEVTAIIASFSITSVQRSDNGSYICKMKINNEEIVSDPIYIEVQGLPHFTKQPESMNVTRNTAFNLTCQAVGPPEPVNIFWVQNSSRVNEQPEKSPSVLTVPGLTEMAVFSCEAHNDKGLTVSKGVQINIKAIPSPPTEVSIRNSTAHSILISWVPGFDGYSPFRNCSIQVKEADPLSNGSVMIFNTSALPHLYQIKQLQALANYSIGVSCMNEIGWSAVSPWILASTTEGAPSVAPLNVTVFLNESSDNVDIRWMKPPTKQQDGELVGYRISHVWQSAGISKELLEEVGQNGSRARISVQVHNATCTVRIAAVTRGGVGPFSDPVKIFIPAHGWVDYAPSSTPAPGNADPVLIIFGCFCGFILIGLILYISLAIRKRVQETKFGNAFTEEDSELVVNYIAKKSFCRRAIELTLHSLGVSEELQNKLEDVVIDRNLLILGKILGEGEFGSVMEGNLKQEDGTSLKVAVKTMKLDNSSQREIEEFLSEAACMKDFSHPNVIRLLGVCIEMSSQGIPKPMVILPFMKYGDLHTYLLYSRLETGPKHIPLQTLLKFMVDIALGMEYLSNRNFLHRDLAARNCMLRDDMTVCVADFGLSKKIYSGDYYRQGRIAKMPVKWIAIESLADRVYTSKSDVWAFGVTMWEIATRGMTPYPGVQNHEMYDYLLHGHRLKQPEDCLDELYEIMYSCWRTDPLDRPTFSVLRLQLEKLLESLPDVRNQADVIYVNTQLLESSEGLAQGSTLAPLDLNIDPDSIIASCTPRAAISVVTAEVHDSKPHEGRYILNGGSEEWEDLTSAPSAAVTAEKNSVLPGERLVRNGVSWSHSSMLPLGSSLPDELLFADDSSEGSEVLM
- test: phosphorylation enrichment, bacterial display (enrichment ratio); higher = better substrate or ligand; peptides without Tyr show the background
Returns one of Criterion met or Criterion not met; Criterion met when phosphorylation enrichment is >= 0.4.

Below are worked cases with known answers.
GKGGSYSQAAS [HLA-B_Y344_C349S] ... Criterion met
TEVIWYKGDEE ... Criterion met
DFPMGYPSFLA [TBCK_Y153_I151M_YF] ... Criterion met

Could you tell me if the measured phosphorylation enrichment of DPNQQYFIAMD [TBX15_Y159_H156N_YF] reaches 0.4 or more?
Criterion not met

Let us now turn to GFSRHYEDGFP [CTNND1_Y217_YF]
Criterion met

* * *

- Test system: c-Abl (mouse)
- test: phosphorylation enrichment, bacterial display (enrichment ratio); higher = better substrate or ligand; peptides without Tyr show the background
Reported phosphorylation enrichment values follow for various sequences
Write no unit; give the number alone.

// below: answered sequences
DPHECYAKVFN [ALB_Y394_D399N] ... 0.91
HSVLNYGVCVC [JAK2_Y613_L609S] ... 0.925
YSGDCYRIQGR [DDR2_Y741_Y740C] ... 0.552
QGIFGYHHFMQ [UFSP2_Y287_YF] ... 1.13
LINPKYSVEEE [PCDH19_Y27_L25P] ... 1.39

Requested field: phosphorylation enrichment. Item: VNTMLYEKFTF [TEK_Y1108_T1106M_YF]
2.38

Let us now turn to FQGGTYSKACT [FGG_Y380_S384C_YF]
0.633

Let us now turn to TLERHYEELQA [SPTBN2_Y834]
0.836

Let us now turn to MKVPLYETPAG [PGM5_Y358_V357L]
11.2

Let us now turn to ADRNHYRRFRR [YBX1_Y145_P149R_YF]
0.507

Let us now turn to RLLRGHDQFAF [HLA-B_Y137_YF]
0.716

Let us now turn to HEVHIYENSGA [ARPC1B_Y35_K37N]
1.32

Let us now turn to HTLQLYRCREE [ALPK3_Y342]
0.329

Let us now turn to RVQQIYSDSDL [MIB1_Y376]
1.31

* * *

- measured.target: SHP2-C SH2;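 further: peptide library displayed on the E. coli surface as eCPX fusions, selected cells deep-sequenced, score is each peptide's frequency after selection divided by its frequency in the input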
- test: SH2 binding enrichment of the phosphorylated peptide, bacterial display (enrichment ratio); higher = better substrate or ligand; peptides without Tyr show the background
property.measured: SH2 binding enrichment
Write no unit; give the number alone.

KNRDVSSSDYF [USP24_Y2134_Y2134S] ... 0.7
PGIRMYRVQYN [LRFN1_Y454_Q455R] ... 0.714

Okay, now this sequence:
Requested field: SH2 binding enrichment. Item: HKNNNYEPSLF [BRCA2_Y57_N60S]
0.72

* * *

- System: c-Abl (mouse)
- test: phosphorylation enrichment, bacterial display (enrichment ratio); higher = better substrate or ligand; peptides without Tyr show the background
Reported phosphorylation enrichment values follow for various sequences
Write no unit; give the number alone.

RHPLDYLRQYP [NARS2_Y138_E137D] ... 0.627
NGLVAYKDGKL [PMM2_Y76] ... 0.427
NWGSPYKSNGC [ZNF347_Y261] ... 0.667
FARNSYVAGQY [G6PD_Y107] ... 0.449
FADIAYNYRHG [PAH_Y166] ... 0.577
SVVLPYEPPEV [TP53_Y220_V218L] ... 0.945

Requested field: phosphorylation enrichment. Item: IGEVVYQRAVM [GRIN2A_Y502]
8.27

Let us now turn to SVTCTYSPAVN [TP53_Y126_L130V]
1.18

* * *

- measured.target: FGFR3 (UniProt P22607)
- Sequence (P22607 whole entry, looked up): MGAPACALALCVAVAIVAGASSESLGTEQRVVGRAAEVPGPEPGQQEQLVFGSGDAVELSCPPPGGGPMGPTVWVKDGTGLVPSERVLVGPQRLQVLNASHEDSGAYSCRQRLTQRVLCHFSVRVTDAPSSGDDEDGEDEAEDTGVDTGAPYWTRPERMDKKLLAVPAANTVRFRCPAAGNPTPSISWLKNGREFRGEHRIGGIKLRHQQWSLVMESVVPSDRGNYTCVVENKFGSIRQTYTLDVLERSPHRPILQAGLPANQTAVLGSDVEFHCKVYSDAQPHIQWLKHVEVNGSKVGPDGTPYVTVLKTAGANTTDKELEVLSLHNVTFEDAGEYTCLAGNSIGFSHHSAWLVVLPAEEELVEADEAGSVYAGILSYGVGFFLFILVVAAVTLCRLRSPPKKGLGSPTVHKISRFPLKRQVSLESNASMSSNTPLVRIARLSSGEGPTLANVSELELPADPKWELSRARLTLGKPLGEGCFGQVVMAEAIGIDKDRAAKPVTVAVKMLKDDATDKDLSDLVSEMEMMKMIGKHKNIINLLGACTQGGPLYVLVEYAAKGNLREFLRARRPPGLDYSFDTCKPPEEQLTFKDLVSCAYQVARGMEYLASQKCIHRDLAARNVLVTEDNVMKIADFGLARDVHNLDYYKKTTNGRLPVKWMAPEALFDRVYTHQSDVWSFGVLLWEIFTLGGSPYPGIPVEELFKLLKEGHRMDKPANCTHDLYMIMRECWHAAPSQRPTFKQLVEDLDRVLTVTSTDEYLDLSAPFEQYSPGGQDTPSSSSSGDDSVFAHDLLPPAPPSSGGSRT
- test: phosphorylation enrichment, bacterial display (enrichment ratio); higher = better substrate or ligand; peptides without Tyr show the background
Returns one of 1.0 or 0.0; 1.0 when phosphorylation enrichment is >= 0.7.

GGFTRYCDGKK [PROS1_Y266_C265R_YF] ... 0.0
RLLREYQELMN [KRT75_Y434] ... 0.0

Could you tell me if the measured phosphorylation enrichment of YSTDYYRVGGH [NTRK2_Y707] reaches 0.7 or more?
1.0

Let us now turn to ADGLEYSRTGL [MMUT_Y287]
0.0

Let us now turn to RNYGTYTAGLS [RHBDD1_Y264_D262G]
0.0

* * *

- measured.target: Fyn (UniProt P06241)
- Sequence (P06241 whole entry, looked up): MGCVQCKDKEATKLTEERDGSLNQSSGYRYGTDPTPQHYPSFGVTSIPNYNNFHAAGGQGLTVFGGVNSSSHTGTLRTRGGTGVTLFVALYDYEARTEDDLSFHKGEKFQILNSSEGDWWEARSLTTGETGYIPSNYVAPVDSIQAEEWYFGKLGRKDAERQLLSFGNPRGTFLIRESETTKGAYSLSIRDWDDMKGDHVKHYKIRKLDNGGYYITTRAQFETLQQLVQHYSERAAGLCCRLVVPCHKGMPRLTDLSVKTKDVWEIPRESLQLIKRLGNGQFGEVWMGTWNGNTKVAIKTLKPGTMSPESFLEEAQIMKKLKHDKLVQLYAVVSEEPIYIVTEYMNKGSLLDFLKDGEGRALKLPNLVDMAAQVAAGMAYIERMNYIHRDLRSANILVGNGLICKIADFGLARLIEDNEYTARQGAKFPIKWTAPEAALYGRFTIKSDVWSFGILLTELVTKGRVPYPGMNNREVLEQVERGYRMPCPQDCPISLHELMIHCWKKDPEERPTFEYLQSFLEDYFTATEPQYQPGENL
- test: phosphorylation enrichment, bacterial display (enrichment ratio); higher = better substrate or ligand; peptides without Tyr show the background
property.measured: phosphorylation enrichment
Write no unit; give the number alone.

// below: answered sequences
RHPLDYLRQYP [NARS2_Y138_E137D] ... 0.547
LKTNCYNNGKD [DNMT3B_Y404] ... 0.649

Requested field: phosphorylation enrichment. Item: LGGAMYYLEAD [PKHD1_Y452_E457D]
1.7

Let us now turn to LGPSDYFGEIA [PRKAR1A_Y323]
0.705

Let us now turn to TLERHYEELQA [SPTBN2_Y834]
0.541

* * *

- measured.target: MERTK (UniProt Q12866)
- test: phosphorylation enrichment, bacterial display (enrichment ratio); higher = better substrate or ligand; peptides without Tyr show the background
property.measured: phosphorylation enrichment

EVEFEYPFRLH [SYP_Y73] ... 0.396
ALECLYHREKR [TEKT5_Y195] ... 0.406
QTEAPYRFIFM [PTPN11_Y511_Q510P_YF] ... 0.595
LGPSDYFGEIA [PRKAR1A_Y323] ... 0.605
ADARMYGVLPR [PLP1_Y207_W212R] ... 0.405

Requested field: phosphorylation enrichment. Item: YIRKDYEACKA [BBS4_Y48]
0.398

Let us now turn to TWEKPYECVQC [ZNF24_Y335_G331W]
0.492

Let us now turn to FTDGQYWIRGR [ACSF3_Y466_K462T]
0.521

Let us now turn to DAGTDYVGISR [FREM2_Y2061]
0.414

Let us now turn to HRGFLYLAIEF [TEK_Y899_Y897F_YF]
0.711

Let us now turn to KFWREYILSLE [GPC3_Y299_YF]
0.431

Let us now turn to VASSLYDIFAR [GLB1_Y294_L297F]
11.4

Let us now turn to HRDSSYFWEIE [RAF1_Y340_Q335H_YF]
0.628

* * *

- measured.target: Jak2 (UniProt O60674)
- Sequence (O60674 whole entry, looked up): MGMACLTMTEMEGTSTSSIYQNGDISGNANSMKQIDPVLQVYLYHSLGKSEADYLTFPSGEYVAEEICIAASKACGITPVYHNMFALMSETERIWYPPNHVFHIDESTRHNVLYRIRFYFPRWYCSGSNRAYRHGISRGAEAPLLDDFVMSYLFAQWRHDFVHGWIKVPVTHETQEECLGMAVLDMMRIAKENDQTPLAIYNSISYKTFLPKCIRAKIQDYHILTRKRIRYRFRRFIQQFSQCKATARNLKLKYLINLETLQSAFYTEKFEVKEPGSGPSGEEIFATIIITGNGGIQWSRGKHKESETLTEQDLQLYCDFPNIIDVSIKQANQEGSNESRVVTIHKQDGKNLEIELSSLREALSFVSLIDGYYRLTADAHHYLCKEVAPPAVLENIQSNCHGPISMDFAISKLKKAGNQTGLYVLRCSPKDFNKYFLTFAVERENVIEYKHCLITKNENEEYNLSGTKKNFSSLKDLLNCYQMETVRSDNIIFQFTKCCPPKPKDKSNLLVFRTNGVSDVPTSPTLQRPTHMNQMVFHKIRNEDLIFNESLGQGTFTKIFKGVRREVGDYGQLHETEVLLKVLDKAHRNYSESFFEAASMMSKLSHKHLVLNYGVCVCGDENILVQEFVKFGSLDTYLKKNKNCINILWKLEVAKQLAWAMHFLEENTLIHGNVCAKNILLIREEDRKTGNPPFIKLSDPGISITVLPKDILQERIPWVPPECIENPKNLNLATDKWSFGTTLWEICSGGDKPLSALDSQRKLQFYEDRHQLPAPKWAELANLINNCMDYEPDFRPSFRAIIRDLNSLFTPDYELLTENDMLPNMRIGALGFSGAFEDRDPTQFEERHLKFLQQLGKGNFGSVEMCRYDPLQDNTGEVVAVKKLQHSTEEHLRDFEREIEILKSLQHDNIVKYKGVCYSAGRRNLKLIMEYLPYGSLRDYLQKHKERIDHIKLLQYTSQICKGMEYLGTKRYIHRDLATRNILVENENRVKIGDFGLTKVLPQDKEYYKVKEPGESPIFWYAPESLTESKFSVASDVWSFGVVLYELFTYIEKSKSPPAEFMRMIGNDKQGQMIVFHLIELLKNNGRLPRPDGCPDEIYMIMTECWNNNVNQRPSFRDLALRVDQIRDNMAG
- test: phosphorylation enrichment, bacterial display (enrichment ratio); higher = better substrate or ligand; peptides without Tyr show the background
Returns one of Satisfied or Not satisfied; Satisfied when phosphorylation enrichment is >= 0.8.

CERLPYDASKW [FLT1_Y815] ... Satisfied
RLGDLYKEEMR [VIM_Y150_E151K] ... Satisfied

Could you tell me if the measured phosphorylation enrichment of SPYMLYQYLKQ [RPAP3_Y567_D564Y] reaches 0.8 or more?
Satisfied

Let us now turn to FGSVDCWEKFF [EEF1AKNMT_Y16_Y16C]
Satisfied

Let us now turn to RRGMPYGGHGD [TGM1_Y312_R315H]
Not satisfied

Let us now turn to RKETFYILSCR [GUCY2C_Y681_T682I]
Satisfied

Let us now turn to FKEQGYHRLPS [RIN1_Y681_P686S_YF]
Satisfied

Let us now turn to HPAGNYSLSSV [ARFGAP3_Y473_Q468H]
Not satisfied

Let us now turn to SIKDKYLTALF [KCNH2_Y611_V612L_YF]
Not satisfied

Let us now turn to KRGASYILKLA [SERPINB1_Y84]
Satisfied

Let us now turn to FTRNYYVRAVL [CYBA_Y88]
Satisfied

Let us now turn to SFCFRYRCAAR [SUMF1_Y344_YF]
Not satisfied

Let us now turn to LKEIRYPPFTD [ALDH3B2_Y362_H361R_YF]
Satisfied

Let us now turn to ENKGVYVLMSG [IVD_Y277]
Satisfied

Let us now turn to RAILLYEYVGK [NATD1_Y45_V42I]
Satisfied

Let us now turn to ECKLLYSRKEG [PTPN11_Y263]
Not satisfied

Let us now turn to LFMGDYVDRGY [PPP2CA_Y86]
Satisfied

Let us now turn to EAVKNYTEKRG [PBRM1_Y672_D674E]
Not satisfied
